method: Dynamic solubility test in water and biological vehicles
Type: physicochemical
applied_conditions: fasted-state simulated intestinal fluid (FaSSIF), pH 6.5, thermodynamic from solid; vehicle FaSSIF, 1 h, 37° C.; read-out: S: Solubility
quantity_name: solubility at 1 h (µg/mL)
Please respond with the number in µg/mL and leave the unit unwritten.

Please report solubility at 1 h for the following molecule: [2H]C([2H])([2H])N(c1nc(-c2ccc(F)cc2)c(C#N)s1)c1c(CC)nn2cc(F)c(N3CCN(CC(=O)N4CC(O)C4)CC3)cc12 [Compound A Crystal form I] 320

* * *

method: Dynamic solubility test in water and biological vehicles
Format: physicochemical
applied_conditions: fasted-state simulated intestinal fluid (FaSSIF), pH 6.5, thermodynamic from solid; vehicle FaSSIF, 24 h, 37° C.; read-out: S: Solubility
quantity_name: solubility at 24 h
Answer format reminder: number followed by unit.

Return reported solubility at 24 h. Input molecule: [2H]C([2H])([2H])N(c1nc(-c2ccc(F)cc2)c(C#N)s1)c1c(CC)nn2cc(F)c(N3CCN(CC(=O)N4CC(O)C4)CC3)cc12 [Compound A Crystal form I] 210 µg/mL
